These entries and their values trace back to PubChem BioAssay (NCI).

tested on: PC-3 prostate; experiment: NCI tumour cell line growth inhibition, 48 h; in the data active = GI50 below about 0.43 µM; inactive = the rest
Select the matching outcome among class 1 = active, class 0 = inactive

query: In this assay, the call recorded for Cc1cc(S(=O)(=O)Nc2nnc(-c3ccccc3)c(-c3ccccc3)n2)c(SCC(N)=O)cc1Cl was what?
result: class 0

query: Further, for CCCCC(O)(c1ccc(Cl)cc1)C(CN1CCOCC1)c1ccc(Cl)cc1 (centres undefined) ?
result: class 0

query: Further, for Cc1cccc(N2CCN(C(=S)c3ccc4c(c3)OCO4)CC2)c1 ?
result: class 0

query: Further, for O=C(N/N=C/c1ccc(Cl)cc1)c1ccc(C(F)(F)F)nc1Nc1cccc(C(F)(F)F)c1 ?
result: class 0

query: Further, for COc1cc2nc3cc([N+](=O)[O-])ccc3c(NCCCNCCO)c2cc1OC ?
result: class 1

* * *

tested on: KM20L2 colon; experiment: NCI tumour cell line growth inhibition, 48 h
readout type: TGI

Worked cases, TGI given:
INSERT INTO measurements (molecule, experimental_result) VALUES
  ('CC(=O)[O-].CCN(CC)c1ccc(C=NCCN=Cc2ccc(N(CC)CC)cc2[O-])c([O-])c1.[Mn+3]', '33.2 µM'),
  ('NCCCCN(CCCN)/[N+]([O-])=N\O', '> 100 µM'),
  ('N#CCN1C(=O)c2cccc3cc([N+](=O)[O-])cc(c23)C1=O', '> 100 µM'),
  ('Cc1ccn2c(c1)nc1nc3ccccc3nc12', '> 100 µM');

query: Please tell me: TGI of c1ccc(CNn2nnc3ccccc32)cc1 , system KM20L2 colon?
result: > 100 µM

query: Further, for C1=CC2SSSC2C1 (stereo unspecified) ?
result: > 100 µM

query: Further, for CCOC(=O)C1=C(C)N(NC(=O)Nc2ccccc2)C(=O)C1=P(c1ccccc1)(c1ccccc1)c1ccccc1 ?
result: > 100 µM

query: Further, for COc1cc(C=C2C(=O)NC(=O)NC2=O)cc(OC)c1OC ?
result: > 100 µM

query: Further, for CC(=O)/C(C)=N/NC(=O)c1ccccc1O ?
result: > 10 µM

query: Further, for Cc1ccc(C2=C(c3ccccc3)C(Br)(c3ccc(C)cc3)C(c3ccccc3)=C2c2ccc(C)cc2)cc1 ?
result: > 100 µM

query: Further, for COc1cc2c(cc1OC)C(CC(=O)NN=C(C)C)NCC2 (stereo unspecified) ?
result: > 100 µM

* * *

tested on: SF-295 CNS; test: NCI tumour cell line growth inhibition, 48 h
Reported TGI is given for each of the following molecules.

INSERT INTO assay_data (molecule, experimental_result) VALUES
  ('COC1(OC)C2(Cl)C(Cl)=C(Cl)C1(Cl)C1C=CC=CC12 (stereo not given)', '> 100 µM'),
  ('Cc1ccc(-c2c(C#N)c(-c3ccc(Cl)cc3)c(C#N)c(=O)n2NS(=O)(=O)c2ccc(C)cc2)cc1', '> 100 µM'),
  ('Cc1cc(Cl)ccc1N=C1NC(=O)C(CC(=O)Nc2ccc([N+](=O)[O-])cc2[N+](=O)[O-])S1 (stereo not given)', '59.5 µM'),
  ('COC(=O)C1=C(C)N(NC(=O)OC(C)(C)C)C(=O)C1=P(c1ccccc1)(c1ccccc1)c1ccccc1', '> 100 µM');

query: Given Cc1cccc(NC(=O)/C(=N\NC(C)(C)C)C2NC(=S)NC2=O)c1C (stereo not given) , state its recorded TGI.
result: > 100 µM

query: Further, for O=C1OC(C(O)CO)C(=O)C1=O (stereo not given) ?
result: > 10000 µM

query: Further, for C[N+](C)(C)CC1CCCCCCCCCCC1=O (stereo not given) ?
result: > 100 µM

query: Further, for Nc1nc(N)c2ncn(-c3ccc(Cl)cc3)c2n1 ?
result: > 100 µM

query: Further, for Cc1ccc(N=Nc2c(O)ccc3cc(S(=O)(=O)O)cc(S(=O)(=O)O)c23)cc1 ?
result: > 100 µM

* * *

tested on: CAKI-1 renal; test: NCI tumour cell line growth inhibition, 48 h
readout type: GI50

Worked cases, GI50 given:
INSERT INTO results (smiles_input, study_system, experimental_result) VALUES
  ('COc1cc(-c2ccc3c(c2)NC(=O)/C3=C\c2ccc[nH]2)ccc1O', 'CAKI-1 renal', '255 nM'),
  ('COc1cc2ncnc(Nc3ccc(C)c(O)c3)c2cc1OC', 'CAKI-1 renal', '1990 nM'),
  ('O=C(NC1=CC(=O)c2ccccc2C1=O)c1ccccc1', 'CAKI-1 renal', '1740 nM');

query: Given C=C1C(=O)O[C@H]2[C@H]1CC/C(COC(=O)C(=O)c1cn(Cc3ccccc3)c3ccccc13)=C\CC[C@@]1(C)O[C@@H]21 , state its recorded GI50.
result: 2960 nM

* * *

Reported TGI is given for each of the following compounds.
tested on: HCC-2998 colon; assay: NCI tumour cell line growth inhibition, 48 h

Worked cases, TGI given:
INSERT INTO assay_data (compound, readout_type, experimental_result) VALUES
  ('Cc1cn(C2CC(O)C(CO)O2)c(=O)n2nnnc12 (centres undefined)', 'TGI', '> 100 µM'),
  ('CCOP(C)(=O)C(N)Cc1ccc(OC)c(OC)c1 (centres undefined)', 'TGI', '> 100 µM'),
  ('Cc1ccc2c(c1)C(C(=O)N[C@@H]1C(=O)N3[C@@H]1SC(C)(C)[C@@H]3C(=O)O)OCCC2 (some centres undefined)', 'TGI', '> 100 µM'),
  ('COc1cc(/C=C2/C[C@H]3[C@@H]4CC=C5C[C@@H](O)CC[C@]5(C)[C@H]4CC[C@]3(C)NC2=O)cc(OC)c1OC', 'TGI', '25.8 µM'),
  ('C1=CC2SSSC2C1 (centres undefined)', 'TGI', '> 100 µM');

query: Given CC1(C)NC2C(=O)c3c([nH]c4ccccc34)[C@]3(C)CCC1CC23 (some centres undefined) , state its recorded TGI.
result: > 100 µM

query: Further, for Cn1cc(NC(=O)c2cc(NC(=O)CN=C(N)N)cn2C)cc1C(=O)NCCC(=N)N ?
result: > 100 µM

query: Further, for O=C(N/N=C/c1ccc(Cl)cc1)c1ccc(C(F)(F)F)nc1Nc1cccc(C(F)(F)F)c1 ?
result: 17.3 µM

query: Further, for C[N+](C)(C)CC1CCCCCCCCCCC1=O (centres undefined) ?
result: > 100 µM

query: Further, for Oc1ccccc1C(Sc1nc2ccccc2s1)Sc1nc2ccccc2s1 ?
result: > 100 µM

query: Further, for Cn1c2c(c3ccccc31)CC1c3c(c4ccccc4n3C)CC21 (centres undefined) ?
result: > 100 µM

query: Further, for CC(=O)OCC12C(=O)C[C@@H](C)C3(CC(c4ccoc4)OC3=O)C1CCC(OC(C)=O)C21CO1 (some centres undefined) ?
result: > 100 µM

query: Further, for N#CC(NC12CC3CC(CC(C3)C1)C2)c1ccccc1C(F)(F)F (centres undefined) ?
result: > 100 µM

query: Further, for NP(=O)(Oc1c2occc2cc2ccc(=O)oc12)N(CCCl)CCCl (centres undefined) ?
result: > 100 µM

query: Further, for CC(C)C(Nc1c2ccccc2nc2ccccc12)C(=O)O (centres undefined) ?
result: > 100 µM

query: Further, for Cc1cccc(NC(=O)C(=O)C(C(=O)c2ccc3ccccc3c2)C2OC(=O)c3ccccc32)c1C (centres undefined) ?
result: 19.5 µM

query: Further, for O=C(Cc1ccccc1)NN1C(=O)C(Cl)C1c1cc(Br)ccc1O (centres undefined) ?
result: > 100 µM

query: Further, for CON(C)C(=O)CNC(=O)OCC1c2ccccc2-c2ccccc21 ?
result: > 100 µM

query: Further, for N#CC(NNC(=O)Cc1ccccc1)c1c(O)ccc2ccccc12 (centres undefined) ?
result: 45.4 µM

query: Further, for COC(=O)[C@@H](C)CNS(=O)(=O)N(c1cc(C(F)(F)F)cc(C(F)(F)F)c1)C1CCN(Cc2ccc(F)cc2)CC1 ?
result: 11.7 µM

query: Further, for CCOC(=O)/C=C(/C(=O)OCC)n1ccc(=O)n(Cc2cn(COCCOC(C)=O)nn2)c1=O ?
result: 36.2 µM

query: Further, for NC(Cc1ccccc1)C(=O)N[C@H]1c2ccsc2/C(=N/O)[C@H]1O (some centres undefined) ?
result: > 100 µM

query: Further, for OCC(O)COCn1nncc1Cn1ncc2c(SCc3ccccc3)ncnc21 (centres undefined) ?
result: > 100 µM

query: Further, for COc1cc(/C=C/c2cc(/C=C/c3ccc(O)c(OC)c3)n(C(=O)Nc3ccc(F)c(Cl)c3)n2)ccc1O ?
result: 3.71 µM

query: Further, for CC(C)[Si](OC1=C(C(=O)N(C)c2cccc(Cl)c2)CCCC1)(C(C)C)C(C)C ?
result: 34 µM

query: Further, for C=C1C(=O)O[C@@H]2/C=C(\C)CC/C=C(/COC(C)=O)C[C@@H](OC(C)=O)[C@@H]12 ?
result: 30.2 µM

query: Further, for O=C(NC1=CC(=O)c2ccccc2C1=O)c1ccccc1 ?
result: 14.3 µM
